Molecular target: UniProt Q12809
Sequence (Q12809 whole entry): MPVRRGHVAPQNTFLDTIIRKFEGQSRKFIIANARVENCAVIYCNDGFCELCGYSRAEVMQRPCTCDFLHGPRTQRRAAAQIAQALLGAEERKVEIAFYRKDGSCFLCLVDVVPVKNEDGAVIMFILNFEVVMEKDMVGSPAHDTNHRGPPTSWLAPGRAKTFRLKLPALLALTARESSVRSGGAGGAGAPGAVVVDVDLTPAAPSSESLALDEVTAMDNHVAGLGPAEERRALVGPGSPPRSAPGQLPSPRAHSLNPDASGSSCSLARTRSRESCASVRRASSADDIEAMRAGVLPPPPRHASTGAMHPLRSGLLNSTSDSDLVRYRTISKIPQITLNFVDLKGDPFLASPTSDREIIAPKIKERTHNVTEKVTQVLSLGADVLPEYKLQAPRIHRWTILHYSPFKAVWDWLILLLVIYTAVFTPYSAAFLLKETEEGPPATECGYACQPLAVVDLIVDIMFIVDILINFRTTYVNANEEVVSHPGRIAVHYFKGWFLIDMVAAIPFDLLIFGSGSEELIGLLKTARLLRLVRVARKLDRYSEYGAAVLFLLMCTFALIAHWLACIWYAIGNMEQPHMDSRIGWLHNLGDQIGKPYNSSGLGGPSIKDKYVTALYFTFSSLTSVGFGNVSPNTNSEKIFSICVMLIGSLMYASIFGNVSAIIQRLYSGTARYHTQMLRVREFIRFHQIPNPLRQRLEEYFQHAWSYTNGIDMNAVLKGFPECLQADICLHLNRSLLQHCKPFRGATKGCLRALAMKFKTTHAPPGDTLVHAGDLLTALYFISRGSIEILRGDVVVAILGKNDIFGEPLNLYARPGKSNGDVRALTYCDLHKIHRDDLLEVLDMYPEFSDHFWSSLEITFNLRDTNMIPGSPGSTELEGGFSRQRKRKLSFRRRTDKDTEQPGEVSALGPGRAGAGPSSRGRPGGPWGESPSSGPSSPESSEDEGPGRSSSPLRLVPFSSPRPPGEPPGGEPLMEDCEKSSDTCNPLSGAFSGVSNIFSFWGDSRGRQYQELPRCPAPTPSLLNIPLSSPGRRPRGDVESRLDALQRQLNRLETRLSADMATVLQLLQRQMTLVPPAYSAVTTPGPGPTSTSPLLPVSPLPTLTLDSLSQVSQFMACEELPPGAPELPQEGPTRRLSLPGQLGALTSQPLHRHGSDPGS
Test: Inhibition of CyB-tagged dofetilide binding to human ERG at 10 uM
Conditions: probe CyB-tagged dofetilide
ASSAY_METRIC: inhibition at 10 µM (%)
Give bare numbers, in %.

Cn1cc(-c2cnc(N)c(OCc3ccccc3Cl)n2)cn1 | 7

Look at each compound and report its inhibition at 10 µM.
1. Nc1ncc(-c2ccc(C(=O)N3CCC[C@H]3CN3CCCC3)cc2)nc1NCc1c(Cl)cccc1Cl
2. Cn1cc(-c2cnc(N)c(NCc3c(Cl)cccc3Cl)n2)cn1
3. Nc1ncc(-c2ccc(C(=O)N3CCC[C@H]3CN3CCCC3)cc2)nc1OCc1c(Cl)cccc1Cl
4. Cn1cc(-c2cnc(N)c(OCc3c(Cl)cccc3Cl)n2)cn1

// result
1. 78
2. 6
3. 91
4. 7

* * *

Target: Macrophage colony-stimulating factor 1 receptor (Homo sapiens)
Sequence (P07333 whole entry): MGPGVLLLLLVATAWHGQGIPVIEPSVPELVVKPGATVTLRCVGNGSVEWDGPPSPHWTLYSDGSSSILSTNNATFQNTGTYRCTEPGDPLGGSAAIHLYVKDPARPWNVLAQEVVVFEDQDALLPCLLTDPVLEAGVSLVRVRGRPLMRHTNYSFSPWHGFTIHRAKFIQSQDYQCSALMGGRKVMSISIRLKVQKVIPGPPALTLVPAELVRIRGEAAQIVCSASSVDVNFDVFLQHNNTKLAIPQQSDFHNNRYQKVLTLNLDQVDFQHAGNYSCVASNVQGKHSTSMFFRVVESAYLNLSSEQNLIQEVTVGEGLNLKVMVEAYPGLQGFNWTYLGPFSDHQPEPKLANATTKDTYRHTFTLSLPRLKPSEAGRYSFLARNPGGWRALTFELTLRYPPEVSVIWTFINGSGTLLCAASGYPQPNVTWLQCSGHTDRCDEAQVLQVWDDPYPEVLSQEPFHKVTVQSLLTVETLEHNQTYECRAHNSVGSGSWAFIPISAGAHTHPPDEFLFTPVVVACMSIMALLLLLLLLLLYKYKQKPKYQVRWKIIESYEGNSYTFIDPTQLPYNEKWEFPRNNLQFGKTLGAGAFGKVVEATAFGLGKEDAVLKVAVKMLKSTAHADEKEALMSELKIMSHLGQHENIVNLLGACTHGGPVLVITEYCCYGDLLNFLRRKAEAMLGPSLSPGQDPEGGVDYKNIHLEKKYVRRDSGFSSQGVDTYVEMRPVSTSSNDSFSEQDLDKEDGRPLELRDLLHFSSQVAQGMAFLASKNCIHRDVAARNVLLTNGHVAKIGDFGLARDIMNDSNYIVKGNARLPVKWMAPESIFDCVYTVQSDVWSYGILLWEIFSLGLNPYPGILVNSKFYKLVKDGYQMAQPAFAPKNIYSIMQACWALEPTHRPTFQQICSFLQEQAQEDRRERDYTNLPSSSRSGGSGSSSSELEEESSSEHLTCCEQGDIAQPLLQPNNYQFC
ASSAY_METRIC: IC50 (µM)
Numbers only, in µM.

// query Recorded IC50 for COc1ccc(COc2ncc(Oc3nc(-c4cnn(C)c4)cnc3N)cc2OC)cc1 , please?
// result 0.012
